Origin of measurements: patent US12286437B2

target: CYP2C8 (Homo sapiens, UniProt P10632); construct: Pooled human microsomes and selective CYP probe substrates were used; from tissue; host or cells: pooled human liver microsomes; assay: Time-dependent inhibition of CYP2C8 in human liver microsomes; format: in vitro ADME; settings: CYP2C8, 25 μM, fold change
Sequence (P10632 whole entry): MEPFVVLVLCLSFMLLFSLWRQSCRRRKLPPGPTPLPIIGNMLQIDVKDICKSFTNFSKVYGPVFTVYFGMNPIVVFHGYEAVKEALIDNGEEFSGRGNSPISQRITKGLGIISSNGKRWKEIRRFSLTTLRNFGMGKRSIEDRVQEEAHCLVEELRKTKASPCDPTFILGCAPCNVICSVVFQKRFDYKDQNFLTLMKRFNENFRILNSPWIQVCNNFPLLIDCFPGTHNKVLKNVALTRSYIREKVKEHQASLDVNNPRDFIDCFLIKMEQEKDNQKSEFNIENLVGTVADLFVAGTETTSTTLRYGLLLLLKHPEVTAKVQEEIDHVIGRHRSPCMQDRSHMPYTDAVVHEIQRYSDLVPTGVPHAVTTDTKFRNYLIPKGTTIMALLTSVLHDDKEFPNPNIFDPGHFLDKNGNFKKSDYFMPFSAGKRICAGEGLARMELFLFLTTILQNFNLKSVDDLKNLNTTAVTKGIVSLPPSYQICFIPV
The molecules listed here are annotated with their (% Activity NADPH T0)/(% Activity NADPH T30).
Note: the reply should be a number with no unit written.

Task: Return value of (% Activity NADPH T0)/(% Activity NADPH T30) for input C[C@H]1CC[C@H](N2CC(=O)N(Cc3ccc(F)c(Cl)c3)C3(CN(C(N)=O)C3)C2=O)CC1 [Compound 7] , no commentary.
Result: 1.1

Task: Query (% Activity NADPH T0)/(% Activity NADPH T30) for CC(C)N1CC(=O)N(Cc2ccc(C(F)(F)F)cc2)C2(CN(c3cccnn3)C2)C1=O [Compound 13]
Result: 1.2

Task: Fill in (% Activity NADPH T0)/(% Activity NADPH T30) for record C[C@H]1CC[C@H](N2CC(=O)N(Cc3ccc(F)c(F)c3)C3(CN(C=O)C3)C2=O)CC1 [Compound 4]
Result: 1.0

====

CDMF IC15 values for the compounds below.
system: bovine cardiac myofibrils; test: Myofibril assay (ATPase activity of skinned bovine cardiac myofibrils, PK/LDH-coupled); assay type: biochemical; details: inhibition of steady-state ATPase of bovine cardiac myofibrils; CaCl2 for 50% or 75% activation
Write down the numeric answer in nM and omit the unit.

| compound | CDMF IC15 (nM) |
| --- | --- |
| CC[C@H]1CC[C@H](N2CC(=O)N(Cc3ccc(F)c(F)c3)C3(CN(C(N)=O)C3)C2=O)CC1 | 700 |
| C[C@H]1CC[C@H](N2CC(=O)N(Cc3ccc(Cl)c(F)c3)C3(CN(C(N)=O)C3)C2=O)CC1 | 700 |

Task: Provide one value: measured CDMF IC15 of `CC[C@H](C)N1CC(=O)N(Cc2ccc(F)c(C)c2)C2(CN(c3cccnn3)C2)C1=O`
Result: 900

Task: Input O=CN1CC2(C1)C(=O)N(c1ccc(F)cc1F)CC(=O)N2Cc1ccc(Cl)cc1 [Comparator A, reference compound] , output reported CDMF IC15.
Result: 1800

Task: Fill in CDMF IC15 for record `C[C@H]1CC[C@H](N2CC(=O)N(Cc3ccc(F)c(F)c3)C3(CN(C(N)=O)C3)C2=O)CC1`
Result: 1300

Task: Specify reported CDMF IC15 for the compound shown: `C[C@H]1CC[C@H](N2CC(=O)N(Cc3ccc(F)c(Cl)c3)C3(CN(C(N)=O)C3)C2=O)CC1`
Result: 800

Task: Give the value of CDMF IC15 reported for the following: `Cc1cc(CN2C(=O)CN([C@H]3CC[C@H](C)CC3)C(=O)C23CN(C(N)=O)C3)ccc1F`
Result: 1400

Task: Could you please provide reported CDMF IC15 for `CC(C)N1CC(=O)N(Cc2ccc(F)c(Cl)c2)C2(CN(c3cccnn3)C2)C1=O` ? Thanks!
Result: 1600

Task: Recall and state the measured CDMF IC15 for `CC(=O)N1CC2(C1)C(=O)N(c1ccc(C#N)cc1F)CC(=O)N2Cc1ccc(C(F)(F)F)cc1` .
Result: 1100

Task: # return recorded CDMF IC15 for input `O=CN1CC2(C1)C(=O)N([C@H]1CC[C@H](C(F)F)CC1)CC(=O)N2Cc1ccc(C(F)(F)F)cc1`
Result: 1300

Task: Annotate the compound `CC(C)N1CC(=O)N(Cc2ccc(C(F)(F)F)cc2)C2(CN(c3cccnn3)C2)C1=O` with its measured CDMF IC15.
Result: 2000

Task: Specify CDMF IC15 for `C[C@H]1CC[C@H](N2CC(=O)N(Cc3ccc(F)cc3)C3(CN(c4cccnn4)C3)C2=O)CC1` and stop.
Result: 900

Task: Given the compound O=C1[C@H](C2COC2)N(Cc2ccc(C(F)(F)F)cc2)C(=O)CN1c1ncc(Cl)cc1F [Comparator C, reference compound] , write its reported CDMF IC15.
Result: 1100

Task: Supply reported CDMF IC15 belonging to this compound: `C[C@H]1CC[C@H](N2CC(=O)N(Cc3ccc(F)c(F)c3)C3(CN(C=O)C3)C2=O)CC1`
Result: 1500

Task: Report measured CDMF IC15; entry is `C[C@H]1CC[C@H](N2CC(=O)N(Cc3ccc(F)c(F)c3)C3(CN(c4cccnn4)C3)C2=O)CC1`
Result: 400

====

target: CYP2C8 (Homo sapiens); construct: Pooled human microsomes and selective CYP probe substrates were used; from tissue; host or cells: pooled human liver microsomes; test: Time-dependent inhibition of CYP2C8 in human liver microsomes; type: in vitro ADME; conditions: pooled human liver microsomes; CYP2C8, 25 μM, human liver microsomes, time zero; read-out: % Activity NADPH T0
experimental_readout: activity at 0 min, 25 µM (%)
Provide only the numeric value, understood in %.

For orientation, consider the following solved cases.
| smi | experimental_readout | number |
| --- | --- | --- |
| CC(C)N1CC(=O)N(Cc2ccc(Cl)c(F)c2)C2(CN(c3cccnn3)C2)C1=O | activity at 0 min, 25 µM | 117 |
| Cc1cc(CN2C(=O)CN([C@H]3CC[C@H](C)CC3)C(=O)C23CN(C(N)=O)C3)ccc1F | activity at 0 min, 25 µM | 79 |

Task: Provide measured activity at 0 min, 25 µM value, entry: `CC(C)N1CC(=O)N(Cc2ccc(C(F)(F)F)cc2)C2(CN(c3cccnn3)C2)C1=O`
Result: 116

Task: Given `C[C@H]1CC[C@H](N2CC(=O)N(Cc3ccc(F)c(F)c3)C3(CN(C(N)=O)C3)C2=O)CC1` , respond with its activity at 0 min, 25 µM.
Result: 87

Task: Respond only with activity at 0 min, 25 µM recorded for `C[C@H]1CC[C@H](N2CC(=O)N(Cc3ccc(Cl)cc3)C3(CN(C(N)=O)C3)C2=O)CC1`
Result: 65

Task: Please give measured activity at 0 min, 25 µM of the following entry: `C[C@H]1CC[C@H](N2CC(=O)N(Cc3ccc(F)c(Cl)c3)C3(CN(C(N)=O)C3)C2=O)CC1`
Result: 72

====

target: CYP2B6 (Homo sapiens); construct: Pooled human microsomes and selective CYP probe substrates were used; from tissue; host or cells: pooled human liver microsomes; assay: Time-dependent inhibition of CYP2B6 in human liver microsomes; type: in vitro ADME; conditions: pooled human liver microsomes; CYP2B6, 25 μM, human liver microsomes, after 30 minutes incubation; read-out: % Activity NADPH T30
Sequence (P20813 whole entry): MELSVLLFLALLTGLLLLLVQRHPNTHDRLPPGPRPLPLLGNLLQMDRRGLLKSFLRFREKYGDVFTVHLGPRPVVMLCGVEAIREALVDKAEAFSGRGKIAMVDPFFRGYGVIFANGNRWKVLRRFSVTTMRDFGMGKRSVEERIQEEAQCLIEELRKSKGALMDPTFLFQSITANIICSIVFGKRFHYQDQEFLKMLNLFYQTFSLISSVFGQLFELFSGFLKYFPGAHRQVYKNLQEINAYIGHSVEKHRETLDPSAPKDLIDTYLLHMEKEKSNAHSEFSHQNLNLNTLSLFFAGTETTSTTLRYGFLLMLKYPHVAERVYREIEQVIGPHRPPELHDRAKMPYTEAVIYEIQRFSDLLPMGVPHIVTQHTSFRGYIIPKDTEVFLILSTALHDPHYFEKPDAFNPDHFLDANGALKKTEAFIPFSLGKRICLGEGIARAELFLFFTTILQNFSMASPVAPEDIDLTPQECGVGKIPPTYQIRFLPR
Overview of reported activity at 30 min, 25 µM across a group of compounds:
Kindly provide the numeric value in % only, without the unit symbol.

Task: Under CYP2B6 (Homo sapiens): report activity at 30 min, 25 µM of `CC(C)N1CC(=O)N(Cc2ccc(Cl)c(F)c2)C2(CN(c3cccnn3)C2)C1=O` .
Result: 97

====

biological target: CYP1A2 (Homo sapiens, UniProt P05177); construct: Pooled human microsomes and selective CYP probe substrates were used; from tissue; host or cells: pooled human liver microsomes; experiment: Time-dependent inhibition of CYP1A2 in human liver microsomes; type: in vitro ADME; settings: pooled human liver microsomes; CYP1A2, 50 μM, human liver microsomes, time zero; read-out: % Activity NADPH T0
Sequence (P05177 whole entry): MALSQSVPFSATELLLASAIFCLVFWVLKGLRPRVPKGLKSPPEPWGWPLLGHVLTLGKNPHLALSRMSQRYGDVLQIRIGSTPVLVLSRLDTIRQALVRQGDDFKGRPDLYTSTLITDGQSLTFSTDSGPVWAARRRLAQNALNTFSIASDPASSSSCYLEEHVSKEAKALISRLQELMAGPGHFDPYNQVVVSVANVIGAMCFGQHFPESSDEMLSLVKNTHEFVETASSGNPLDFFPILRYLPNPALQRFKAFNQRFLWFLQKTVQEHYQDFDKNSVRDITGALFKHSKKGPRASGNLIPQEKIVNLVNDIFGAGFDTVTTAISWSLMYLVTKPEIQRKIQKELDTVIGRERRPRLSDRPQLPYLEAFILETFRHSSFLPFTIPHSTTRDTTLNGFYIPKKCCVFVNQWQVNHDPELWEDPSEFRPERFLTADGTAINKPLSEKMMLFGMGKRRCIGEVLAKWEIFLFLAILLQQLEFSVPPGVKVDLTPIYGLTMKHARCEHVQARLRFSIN
The threshold is inclusive: activity at 0 min, 50 µM of exactly 90% counts as yes (1); values below receive no (0).

The following molecules have reported results that may help.
| smi | target_under_test | cat |
| --- | --- | --- |
| C[C@H]1CC[C@H](N2CC(=O)N(Cc3ccc(F)c(Cl)c3)C3(CN(C(N)=O)C3)C2=O)CC1 | CYP1A2 (Homo sapiens, UniProt P05177) | no (0) |
| Cc1cc(CN2C(=O)CN([C@H]3CC[C@H](C)CC3)C(=O)C23CN(C(N)=O)C3)ccc1F | CYP1A2 (Homo sapiens, UniProt P05177) | yes (1) |
| C[C@H]1CC[C@H](N2CC(=O)N(Cc3ccc(F)c(F)c3)C3(CN(C(N)=O)C3)C2=O)CC1 | CYP1A2 (Homo sapiens, UniProt P05177) | yes (1) |

Task: Quick check: does `CC(C)N1CC(=O)N(Cc2ccc(Cl)c(F)c2)C2(CN(c3cccnn3)C2)C1=O` have activity at 0 min, 50 µM greater than or equal to 90%?
Result: no (0)

====

experiment: Monkey cassette dosing pharmacokinetics; format: in vivo; settings: IV
experimental_readout: t l/2 (h)
Kindly provide the numeric value in h only, without the unit symbol.

Example entries begin here.
| compound | unit_annotation | number |
| --- | --- | --- |
| Cc1cc(CN2C(=O)CN([C@H]3CC[C@H](C)CC3)C(=O)C23CN(C(N)=O)C3)ccc1F [Compound 6] | h | 8.07 |
| CC(C)N1CC(=O)N(Cc2ccc(F)c(Cl)c2)C2(CN(c3cccnn3)C2)C1=O [Compound 9] | h | 1.59 |

Task: In one line, give reported t l/2 of the entry C[C@H]1CC[C@H](N2CC(=O)N(Cc3ccc(F)c(F)c3)C3(CN(C=O)C3)C2=O)CC1 [Compound 4] .
Result: 8.69

Task: Answer with the recorded t l/2 for the compound listed here: C[C@H]1CC[C@H](N2CC(=O)N(Cc3ccc(Cl)cc3)C3(CN(C(N)=O)C3)C2=O)CC1 [Compound 18]
Result: 8.04

Task: Check the records and state t l/2 for C[C@H]1CC[C@H](N2CC(=O)N(Cc3ccc(F)c(F)c3)C3(CN(C(N)=O)C3)C2=O)CC1 [Compound 5]
Result: 8.2

Task: Report t l/2 for CC[C@H](C)N1CC(=O)N(Cc2ccc(F)c(F)c2)C2(CN(c3cccnn3)C2)C1=O [Compound 14]
Result: 1.1
